Values were extracted from paper PMC7667534.

target: Mushroom tyrosinase; assay: DOPA-chrome assay with L-DOPA ([…]), mushroom tyrosinase […] U/mL, absorbance at […] nm; reference inhibitor measured by the authors; type: biochemical; conditions: read-out: Anti-tyrosinase activity (IC50)
OBSERVABLE: pIC50
Reminder that pIC50 is minus the log10 of a molar concentration.

Task: Dear colleague, I am looking for the recorded pIC50 of the following molecule: OC[C@H]1O[C@@H](Oc2ccc(O)cc2)[C@H](O)[C@@H](O)[C@@H]1O [Arbutin]
Output: 3.77
